- TARGET_OR_SYSTEM: MAP/microtubule affinity-regulating kinase 4 (Homo sapiens); also: in the data inactive means no Kd found up to 30 µM
- Sequence (Q96L34 whole entry): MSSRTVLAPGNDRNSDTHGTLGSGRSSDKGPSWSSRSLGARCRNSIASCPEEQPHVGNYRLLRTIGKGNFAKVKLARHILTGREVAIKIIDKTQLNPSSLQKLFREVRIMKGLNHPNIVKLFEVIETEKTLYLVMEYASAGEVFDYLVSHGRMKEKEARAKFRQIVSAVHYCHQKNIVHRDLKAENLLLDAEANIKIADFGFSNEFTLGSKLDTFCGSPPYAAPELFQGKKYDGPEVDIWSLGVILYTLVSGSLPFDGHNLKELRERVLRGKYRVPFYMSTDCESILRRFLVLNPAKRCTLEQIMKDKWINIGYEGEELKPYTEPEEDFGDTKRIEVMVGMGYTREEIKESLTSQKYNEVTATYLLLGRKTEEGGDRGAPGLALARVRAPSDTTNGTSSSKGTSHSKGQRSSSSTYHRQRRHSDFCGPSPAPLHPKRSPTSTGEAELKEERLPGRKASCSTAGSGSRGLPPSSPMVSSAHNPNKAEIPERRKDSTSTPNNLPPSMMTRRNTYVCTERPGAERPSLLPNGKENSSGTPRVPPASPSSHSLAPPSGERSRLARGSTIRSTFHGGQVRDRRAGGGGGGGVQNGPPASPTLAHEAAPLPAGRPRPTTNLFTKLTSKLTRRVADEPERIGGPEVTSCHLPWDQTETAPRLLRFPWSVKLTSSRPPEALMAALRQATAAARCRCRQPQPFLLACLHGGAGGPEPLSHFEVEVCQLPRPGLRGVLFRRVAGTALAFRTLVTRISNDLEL
Calls of active or inactive are those of the source.
PARAMETER: Kd

These solved cases illustrate the format of a correct answer.
>>> test_value("C[C@@H]1CN(Cc2ccc(F)cc2)[C@@H](C)CN1C(=O)c1cc2c(C(=O)C(=O)N(C)C)cn(C)c2cc1Cl")
"> 30 µM (inactive)"
>>> test_value("Cc1ccc(-n2nc(C(C)(C)C)cc2NC(=O)NCc2cc(F)ccc2Oc2ccc3c(cnn3CCO)c2)cc1")
"> 30 µM (inactive)"
>>> test_value("CN1N=C(N)c2cn([C@@H]3O[C@H](COP(=O)(O)O)[C@@H](O)[C@H]3O)c3ncnc1c23 [TRICIRIBINE PHOSPHATE]")
"> 30 µM (inactive)"
>>> test_value("C[C@@H](Nc1cc(F)cc(F)c1)c1cc(C(=O)N(C)C)cc2c(=O)cc(N3CCOCC3)oc12")
"> 30 µM (inactive)"
>>> test_value("O=C1NC(=O)/C(=C/c2ccc3nccc(-c4ccncc4)c3c2)S1")
"> 30 µM (inactive)"
>>> test_value("CC[C@@H]1C(=O)N(C)c2cnc(Nc3ccc(C(=O)N[C@H]4CC[C@H](N5CCN(CC6CC6)CC5)CC4)cc3OC)nc2N1C(C)C")
"> 30 µM (inactive)"

Consider now this further compound.
Query: I am curious: what Kd value has been reported for O=C(Nc1cccc(Cl)c1)Nc1ncc(CCNc2ncnc3ccsc23)s1 ?
Response: > 30 µM (inactive)

----------
- TARGET_OR_SYSTEM: Ribosomal protein S6 kinase alpha-6 (Homo sapiens); also: in the data inactive means no Kd found up to 30 µM
- Sequence (Q9UK32 whole entry): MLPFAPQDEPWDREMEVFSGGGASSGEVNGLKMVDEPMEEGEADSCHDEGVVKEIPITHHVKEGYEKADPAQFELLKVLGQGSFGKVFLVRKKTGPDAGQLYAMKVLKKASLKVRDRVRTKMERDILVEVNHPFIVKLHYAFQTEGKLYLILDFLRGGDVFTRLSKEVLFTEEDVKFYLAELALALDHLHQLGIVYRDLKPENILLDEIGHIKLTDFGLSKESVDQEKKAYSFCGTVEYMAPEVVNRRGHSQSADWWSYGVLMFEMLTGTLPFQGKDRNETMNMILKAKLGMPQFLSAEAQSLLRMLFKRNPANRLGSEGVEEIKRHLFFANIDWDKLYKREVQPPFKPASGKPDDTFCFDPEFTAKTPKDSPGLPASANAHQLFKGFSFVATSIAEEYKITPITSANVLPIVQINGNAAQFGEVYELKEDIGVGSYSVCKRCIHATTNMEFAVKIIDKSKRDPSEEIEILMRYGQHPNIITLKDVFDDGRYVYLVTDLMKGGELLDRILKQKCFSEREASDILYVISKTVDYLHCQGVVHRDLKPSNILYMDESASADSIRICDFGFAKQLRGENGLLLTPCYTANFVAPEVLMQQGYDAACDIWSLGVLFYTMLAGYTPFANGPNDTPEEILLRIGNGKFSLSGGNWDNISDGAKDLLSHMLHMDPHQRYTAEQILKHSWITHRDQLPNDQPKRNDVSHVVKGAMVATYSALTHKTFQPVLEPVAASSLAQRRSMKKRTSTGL
Activity calls are given as the source filed them.
Respond only with the outcome that fits, drawn from active, inactive

>>> group("CC[C@H](Nc1ncnc2[nH]cnc12)c1nc2cccc(F)c2c(=O)n1-c1ccccc1 [IDELALISIB]")
"inactive"

Query: Hi team, can someone confirm the assay call for CCCS(=O)(=O)Nc1ccc(F)c(C(=O)c2c[nH]c3ncc(-c4ccc(Cl)cc4)cc23)c1F [VEMURAFENIB] ?
Response: inactive

Query: And for O=C(c1ccc(F)c(F)c1Nc1ccc(I)cc1F)N1CC(O)([C@@H]2CCCCN2)C1 [COBIMETINIB] ?
Response: inactive
